# Tested on: BT-549 breast
# PROTOCOL_DESCRIPTION: NCI-60 one-dose screen, 48 h (100 = growth as untreated, 0 = no growth, -100 = all killed)
# PROTOCOL_CONDITIONS: 10 µM unless noted
About 83,000 compounds went through this panel and 20% of them were active in at least one assay; those are over-represented in the sample as a whole.
Threshold rule: growth greater than or equal to 70% is y; below that, n.

[
  {
    "COMPOUND": "CCCCNC(=O)NS(=O)(=O)c1ccc(N2N=C(c3ccc(C)cc3C)CC2c2ccc(N(C)C)cc2)cc1 (stereo not given)",
    "SUBJECT_OF_TEST": "BT-549 breast",
    "GROUP_LABEL": "n"
  },
  {
    "COMPOUND": "Cc1c(C(N)=O)sc2nc(C)n(/N=c3\\scc(-c4ccccc4)n3Cc3ccccc3)c(=O)c12",
    "SUBJECT_OF_TEST": "BT-549 breast",
    "GROUP_LABEL": "n"
  },
  {
    "COMPOUND": "O=C1Nc2ccccc2/C1=N/N=C/c1ccsc1",
    "SUBJECT_OF_TEST": "BT-549 breast",
    "GROUP_LABEL": "y"
  },
  {
    "COMPOUND": "CCn1c(Sc2nnc(Nc3ccccc3)s2)nc2c1c(=O)n(C)c(=O)n2C",
    "SUBJECT_OF_TEST": "BT-549 breast",
    "GROUP_LABEL": "y"
  }
]

* * *

# System: SK-MEL-2 melanoma
# PROTOCOL_DESCRIPTION: NCI-60 one-dose screen, 48 h (100 = growth as untreated, 0 = no growth, -100 = all killed)
# PROTOCOL_CONDITIONS: 10 µM unless noted
This is part of a sample that, as a whole, favours compounds with a hit. Of some 83,000 tested, about 20% had one in any assay.
Entries and their measured growth follow.
PARAMETER: growth (%)

[
  {
    "COMPOUND": "Cc1nc(Nc2ccc(N)cc2)c2ccccc2n1",
    "PARAMETER": "growth",
    "EXPERIMENTAL_RESULT": 101
  },
  {
    "COMPOUND": "c1ccc([P+](CCCc2n(Cc3ccc4ccccc4c3)c3ccccc3[n+]2Cc2ccc3ccccc3c2)(c2ccccc2)c2ccccc2)cc1",
    "PARAMETER": "growth",
    "EXPERIMENTAL_RESULT": 100
  },
  {
    "COMPOUND": "Fc1ccc(Nc2nc3nonc3nc2Nc2ccc(F)cc2)cc1",
    "PARAMETER": "growth",
    "EXPERIMENTAL_RESULT": -26.2
  },
  {
    "COMPOUND": "CC(C)n1nc(C#Cc2cccc(NC(=O)c3cccc(C(F)(F)F)c3)c2)c2c(N)ncnc21",
    "PARAMETER": "growth",
    "EXPERIMENTAL_RESULT": -65.2
  },
  {
    "COMPOUND": "CC(=O)Nc1cccc(C2=CC(c3ccc(C)cc3)n3ncnc3N2)c1 (stereo not given)",
    "PARAMETER": "growth",
    "EXPERIMENTAL_RESULT": 103
  }
]

* * *

# Test system: PC-3 prostate
# PROTOCOL_DESCRIPTION: NCI-60 one-dose screen, 48 h
# PROTOCOL_CONDITIONS: 10 µM unless noted
Compounds without any hit were thinned out: in the full panel of roughly 83,000, 20% have a hit. The source made the active and inactive calls. Rule for the calls: active = growth percent below 10; inactive = the rest.
Classes used: active, inactive

[
  {
    "COMPOUND": "CCc1nc2ccccc2[nH]1",
    "SUBJECT_OF_TEST": "PC-3 prostate",
    "GROUP_LABEL": "inactive"
  },
  {
    "COMPOUND": "CCCCN1CCN(c2ccc3nc(-c4ccc5nc(-c6cc(OC)c(OC)c(OC)c6)[nH]c5c4)[nH]c3c2)CC1",
    "SUBJECT_OF_TEST": "PC-3 prostate",
    "GROUP_LABEL": "inactive"
  },
  {
    "COMPOUND": "O=C1NC(=S)S/C1=C\\N1N=C(c2ccc(Cl)cc2)CC1c1ccc(F)cc1 (centres undefined)",
    "SUBJECT_OF_TEST": "PC-3 prostate",
    "GROUP_LABEL": "inactive"
  },
  {
    "COMPOUND": "C/C(=N\\NC(N)=S)c1nc2ccc(Cl)cc2[nH]1",
    "SUBJECT_OF_TEST": "PC-3 prostate",
    "GROUP_LABEL": "inactive"
  },
  {
    "COMPOUND": "O=[N+]([O-])c1ccc(-c2cc3c(Nc4ccc(Sc5nc6ccccc6s5)c(Cl)c4)ncnc3s2)cc1",
    "SUBJECT_OF_TEST": "PC-3 prostate",
    "GROUP_LABEL": "inactive"
  },
  {
    "COMPOUND": "O=C(Oc1ccc([N+](=O)[O-])cc1)c1ccc(CBr)cc1",
    "SUBJECT_OF_TEST": "PC-3 prostate",
    "GROUP_LABEL": "inactive"
  },
  {
    "COMPOUND": "O=C1/C(=C/c2ccc([N+](=O)[O-])cc2)COc2ccc(O)c(O)c21",
    "SUBJECT_OF_TEST": "PC-3 prostate",
    "GROUP_LABEL": "active"
  },
  {
    "COMPOUND": "CC(C)n1nc(C#Cc2cccc3cc(-c4cccc(C(F)(F)F)c4)ncc23)c2c(N)ncnc21",
    "SUBJECT_OF_TEST": "PC-3 prostate",
    "GROUP_LABEL": "inactive"
  },
  {
    "COMPOUND": "COc1ccc(-c2nc3ncccn3c2/C=C/C(=O)c2cc(OC)c(OC)c(OC)c2)cc1",
    "SUBJECT_OF_TEST": "PC-3 prostate",
    "GROUP_LABEL": "inactive"
  },
  {
    "COMPOUND": "C=C(C)[C@@H]1CC[C@@]2(C(=O)O)CC[C@]3(C)C(CCC4[C@@]5(C)CCC(OS(=O)(=O)c6ccccc6)C(C)(C)C5CC[C@]43C)C12 (some centres undefined)",
    "SUBJECT_OF_TEST": "PC-3 prostate",
    "GROUP_LABEL": "inactive"
  },
  {
    "COMPOUND": "CCCCCCCSc1ccc(C(=O)O)cc1",
    "SUBJECT_OF_TEST": "PC-3 prostate",
    "GROUP_LABEL": "inactive"
  },
  {
    "COMPOUND": "N=C(N)c1ccc(-c2ccc(-c3ccc(Cl)cc3Cl)o2)nc1",
    "SUBJECT_OF_TEST": "PC-3 prostate",
    "GROUP_LABEL": "inactive"
  },
  {
    "COMPOUND": "CN1C(=O)CCC(N2C(=O)c3cccc(NCCOCCOCCNC(=O)c4cc5c(o4)C(=O)c4ccccc4C5=O)c3C2=O)C1=O (centres undefined)",
    "SUBJECT_OF_TEST": "PC-3 prostate",
    "GROUP_LABEL": "active"
  },
  {
    "COMPOUND": "Cc1nc(Nc2ccc(S(=O)(=O)Nc3cc(C)on3)cc2)c2ccccc2n1",
    "SUBJECT_OF_TEST": "PC-3 prostate",
    "GROUP_LABEL": "inactive"
  },
  {
    "COMPOUND": "O=C1CSC(c2ccccc2O)N1c1nnc(Cn2cnnc2)o1 (centres undefined)",
    "SUBJECT_OF_TEST": "PC-3 prostate",
    "GROUP_LABEL": "inactive"
  },
  {
    "COMPOUND": "C[C@H]1[C@H]2C3=CC[C@@H]4[C@@]5(C)C/C(=C/c6ccncc6)C(=O)C(C)(C)[C@@H]5CC[C@@]4(C)[C@]3(C)CC[C@@]2(C(=O)N2CCN(C)CC2)CC[C@@H]1C",
    "SUBJECT_OF_TEST": "PC-3 prostate",
    "GROUP_LABEL": "inactive"
  },
  {
    "COMPOUND": "COc1cc(C2CC(=O)Nc3n[nH]c(-c4ccccc4)c32)cc(OC)c1OC (centres undefined)",
    "SUBJECT_OF_TEST": "PC-3 prostate",
    "GROUP_LABEL": "inactive"
  },
  {
    "COMPOUND": "CCCNCC(=O)Nc1ccc(C(=O)OC(C)(C)CC)cc1",
    "SUBJECT_OF_TEST": "PC-3 prostate",
    "GROUP_LABEL": "inactive"
  },
  {
    "COMPOUND": "CCOc1ccc(-c2nc3ccc(-c4nc5ccc(N6CCN(C)CC6)cc5[nH]4)cc3[nH]2)cc1OCC",
    "SUBJECT_OF_TEST": "PC-3 prostate",
    "GROUP_LABEL": "inactive"
  }
]

Data provenance: PubChem BioAssay (NCI)
